For each entry below, report its Activity value.
system: Mus musculus; assay: Antidiabetic activity in C57B6N mouse assessed as blood glucose correction at 30 mg/kg, po; assay type: functional
Just the number please, in %, no unit attached.

Inquiry: Name the value of Activity reported for NC(=O)c1cccc(N2CCN(c3ncc(C(O)(C(F)(F)F)C(F)(F)F)s3)CC2)c1 when tested on Mus musculus.
Reply text: 32

Inquiry: Name the value of Activity reported for NC(=O)C1(c2ccccc2)CCN(c2ncc(C(O)(C(F)(F)F)C(F)(F)F)s2)CC1 when tested on Mus musculus.
Reply text: 41

Inquiry: Name the value of Activity reported for CS(=O)(=O)NC(=O)C1(c2ccccc2)CCN(c2ncc(C(O)(C(F)(F)F)C(F)(F)F)s2)CC1 when tested on Mus musculus.
Reply text: 48

Inquiry: Name the value of Activity reported for CNC(=O)c1cccc(N2CCN(c3ncc(C(O)(C(F)(F)F)C(F)(F)F)s3)CC2)c1 when tested on Mus musculus.
Reply text: 30
